# System: HCC 2998
# ASSAY PROTOCOL: NCI tumour cell line growth inhibition, 48 h
Active and inactive are the calls of the source. No stated cut-off is given here; in the data, active = GI50 up to about 1.1 µM and inactive = higher. Where a SMILES comes first, the peptide text is derived from it. [ ]: non-standard residue; d: D form. The star is where a group is joined. ξ: configuration not given here. ξPhe(4-NO2) = NC(Cc1ccc([N+](=O)[O-])cc1)C(=O)O; Boc = CC(C)(C)OC(=O)*
OBSERVED PROPERTY: GI50

                                   compound               result
0  Cc1ccc(/N=N/c2c(C)nn(-c3ccccc3)c2-c2ccccc2)c(Br)c1   61.8 µM (inactive)
1         O=C(CCc1ccccc1)NS(=O)(=O)c1ccccc1  > 100 µM (inactive)
2  CCCCn1c(C)c2c(c1C)C(=O)N(CC(O)CN1CCc3ccccc3C1)C2=O (centres undefined)   39.8 µM (inactive)
3                 CC(C)OC(=O)c1cccnc1/C=N/O  > 100 µM (inactive)
4   Cc1[nH]c2ccccc2c1-c1n[nH]c(=O)c2ccccc12   30.4 µM (inactive)
5  [O-]/[N+](=C\c1ccccc1)[C@H](COCc1ccccc1)c1ccccc1  > 100 µM (inactive)
6  Cc1ncc([N+](=O)[O-])n1CCNC(=O)Cn1ccnc1[N+](=O)[O-]  > 100 µM (inactive)
7  CN1NC(c2ccccc2)=C(C#N)C(=O)CC1c1ccc(F)cc1 (centres undefined)  > 100 µM (inactive)
8  CCNC(=O)CNC(=O)C(Cc1ccc([N+](=O)[O-])cc1)NC(=O)OC(C)(C)C (centres undefined) (Boc-[ξPhe(4-NO2)]-Gly-NHEt)  > 100 µM (inactive)

* * *

# Test system: NCI-H522
# ASSAY PROTOCOL: NCI tumour cell line growth inhibition, 48 h
Activity calls are given as the source filed them. No stated cut-off is given here; in the data, active = GI50 up to about 1.1 µM and inactive = higher.
Entries annotated with measured GI50
OBSERVED PROPERTY: GI50

In [3]: df
Out[3]:
                                   molecule  observed_property               result
0   COc1cc2cc(OC)c3cc4c(cc3c2c(OC)c1OC)OCO4               GI50     18 µM (inactive)
1  Cc1cc(S(=O)(=O)n2ccnc2O)c(SCCCN(C)C)cc1Cl               GI50  > 100 µM (inactive)
2                  O=C(CSC1=NCCN1)Nc1ccccc1               GI50     19 µM (inactive)
3                       CCN(C(C)=N)c1ccccc1               GI50   50.2 µM (inactive)
4  CCC1CCCCN1CC(C(C)=O)C(c1ccccc1)c1c(O)c2ccccc2oc1=O (stereo not given)               GI50  > 100 µM (inactive)
5  COc1cc(/C=C2/C(=O)N(C(=O)OCC(C)C)C(Cc3cc(OC)c(OC)c(C)c3OC)C(=O)N2Cc2ccccc2)c(OC)c(C)c1OC (stereo not given)               GI50   5.26 µM (inactive)
6  O=P1(NCCCl)OCCCN1CCCl (stereo not given) [IFOSFAMIDE]               GI50    300 µM (inactive)
7  COc1cc(/C=C/C(=O)c2sc(Nc3ccccc3)nc2C)ccc1O               GI50   42.4 µM (inactive)
8                  CCC1(CC)SCc2nc3ccccc3n21               GI50   37.6 µM (inactive)
9    CCc1cccc(CC)c1NC(=S)NC(=O)c1ccc(Br)cc1               GI50   17.6 µM (inactive)

* * *

Known GI50 of a selection of molecules
# System: TK-10
# ASSAY PROTOCOL: NCI tumour cell line growth inhibition, 48 h
Activity calls are given as the source filed them. Rule as the data show it: active = GI50 up to about 1.1 µM and inactive = higher.
OBSERVED PROPERTY: GI50

>>> df
                                   molecule               result
0  O=C(/C=C/c1ccc(Br)cc1)c1ccc(NCc2nc3ccccc3[nH]2)cc1   11.1 µM (inactive)
1     COc1ccc2nc(-c3ccccc3)cc(OCC(=O)O)c2c1  > 100 µM (inactive)
2    Nc1nc(N)c(-c2ccccc2)c(C(=O)Nc2nccs2)n1  > 100 µM (inactive)
3  CC(=O)NNc1nc(C)c(C(/C=C/c2ccc(Cl)cc2)=N/NC(=O)C[N+](C)(C)C)s1  > 100 µM (inactive)
4  C#CCN(Cc1ccc2[nH]c(N)nc(=O)c2c1)c1ccc(C(=O)NC(CCC(=O)O)C(=O)O)cc1 (stereo not given)   10.8 µM (inactive)

* * *

# Test system: TK-10
# ASSAY PROTOCOL: NCI tumour cell line growth inhibition, 48 h
Active and inactive are the calls of the source. No stated cut-off is given here; in the data, active = GI50 up to about 1.1 µM and inactive = higher.
Recorded measurements of GI50, one per entry
OBSERVED PROPERTY: GI50

                                   compound               result
0  COc1cc(/C=C/C(=O)c2sc(Nc3ccccc3)nc2C)ccc1O  > 100 µM (inactive)
1  Cc1cc(Nc2ccc(/N=N/c3ccc(O)c4ncccc34)cc2)nc(C)n1   17.9 µM (inactive)
2                  O=C(CSC1=NCCN1)Nc1ccccc1   19.2 µM (inactive)
3  O=C(Nc1ccccc1)Nn1c(-c2cccs2)nc2ccc(I)cc2c1=O   28.4 µM (inactive)
4              Nc1ncnc2c1ncn2Cc1cccc(CCl)c1     17 µM (inactive)
5  O=C1CCCCC1CN1CCCCC1 (stereo unspecified)  > 100 µM (inactive)

* * *

# System: Malme-3M
# ASSAY PROTOCOL: NCI tumour cell line growth inhibition, 48 h
The source made the active and inactive calls. No stated cut-off is given here; in the data, active = GI50 up to about 1.1 µM and inactive = higher.
Overview of recorded GI50 for various compounds

COMPOUND	GI50
CC(CN(C)C)C(O)(c1ccccc1)c1ccccc1 (stereo unspecified)	> 100 µM (inactive)
CC1=CCCC2C1(C)CCC(C)C2(C)Cc1cc(O)ccc1O (stereo unspecified)	17.7 µM (inactive)
Cc1cc(S(=O)(=O)n2ccnc2O)c(SCCCN(C)C)cc1Cl	> 100 µM (inactive)
COC(=O)/C=C1/OC(c2ccc(C)cc2C)=CC1=O	16.4 µM (inactive)
CC(NC(=O)C(=O)N/N=C1\C[C@@H](c2ccccc2)Nc2ccccc21)c1ccccc1 (stereo partly specified)	20.5 µM (inactive)
NC1CCCCC1.O=C(O)C1(P(=O)(O)O)CC1	> 100 µM (inactive)
CO[C@@H]1C[C@H]2[C@@H]3CC[C@H]([C@H](C)COC(C)=O)[C@@]3(C)CC[C@@H]2[C@@]2(C)CC[C@H]3C[C@]312	> 100 µM (inactive)
CC(C)OC(=O)c1cccnc1/C=N/O	> 100 µM (inactive)
N#CCCC1C(C#N)C2(Cl)CC1(Cl)C(Cl)=C2Cl (stereo unspecified)	> 10 µM (inactive)
O=C(c1cccs1)N(C(=O)N1CCCCC1)c1ccccc1	2.25 µM (inactive)
COc1ccc(/C=C/C(=O)C(C)(C)CN2CCCCC2)cc1	22.2 µM (inactive)
C=CCNS(=O)(=O)c1ncnc2[nH]cnc12	> 100 µM (inactive)
COc1cc(/C=C2/C(=O)N(C(=O)OCC(C)C)C(Cc3cc(OC)c(OC)c(C)c3OC)C(=O)N2Cc2ccccc2)c(OC)c(C)c1OC (stereo unspecified)	> 100 µM (inactive)
O=C(O)c1nc(-c2ccccc2)ncc1-c1nnnn1-c1ccccc1	> 100 µM (inactive)
Cn1c(-c2ccccc2)cc2c3ccsc3c3ccsc3c21	> 100 µM (inactive)
COc1ccc(S(=O)(=O)n2c3c(c4ccccc42)[C@@H]2[C@@H](CCCN2C(=O)C[S+]([O-])c2ccc(C)cc2)[C@H](Cl)C3)cc1 (stereo partly specified)	> 100 µM (inactive)
CC1(C)OC(=O)C(=C2CC(c3ccccc3)c3ccccc32)C(=O)O1 (stereo unspecified)	> 100 µM (inactive)
C[C@@H]1O[C@@H]2OCC[C@@H]2C2=C1C(=O)c1ccccc1C2=O	2.19 µM (inactive)
CCCCc1ccc(Nc2nc3c(ncn3COCCBr)c(=O)[nH]2)cc1	> 100 µM (inactive)
CCCC(O)[C@@H](O)c1ccc2c(c1O)C(=O)c1c(OC)cccc1C2=O (stereo partly specified)	40.7 µM (inactive)
Clc1ccccc1C(c1ccccc1)(c1ccccc1)n1ccnc1	4.8 µM (inactive)

* * *

The following molecules are shown together with reported GI50 values.
# Test system: OVCAR-8
# ASSAY PROTOCOL: NCI tumour cell line growth inhibition, 48 h
Active and inactive are the calls of the source. No stated cut-off is given here; in the data, active = GI50 up to about 1.1 µM and inactive = higher.
OBSERVED PROPERTY: GI50

>>> df
                                   molecule               result
0            CCCCOC(=O)CN1C(=O)c2ccccc2C1=O  > 100 µM (inactive)
1  CC1(C)CCC[C@@]2(C)C1C(=O)[C@@H]1O[C@]1(C)[C@@H]2CO (stereo not given in full)   27.3 µM (inactive)
2  COC(=O)CC1C(C)(C)C(=O)C2CC3=C4CC(=O)OC(c5ccoc5)C4(C)CCC3C1(C)C2=O (stereo not given)  > 100 µM (inactive)
3  CCOC(=O)CN1C(=O)c2c(c(C)n(-c3ccccc3)c2C)C1=O  > 100 µM (inactive)
4  C=CC(C)(C)n1cc(C2=C(O)C(=O)C(c3c(CC=C(C)C)[nH]c4ccccc34)=C(O)C2=O)c2ccccc21    1.3 µM (inactive)
5  CCN(CC)/C(SCc1ccccc1)=C(\C(Cl)=C(Cl)Cl)[N+](=O)[O-]   16.9 µM (inactive)
6                       CCN(C(C)=N)c1ccccc1  > 100 µM (inactive)
7  CC1=CCC[C@@]2(C)C(CC[C@@H]2C(C)/C=C/C(C)C)c2ccc(cc2C(=O)O)C[C@@H](O)CC1 (stereo not given in full)   15.2 µM (inactive)
8  CCCCCCCCCCCCCCCCCC(=O)NCC(COP(=O)([O-])OCC[N+](C)(C)C)OC (stereo not given)   10.9 µM (inactive)
9  CC(=O)CC(O)(C(F)(F)Cl)C(F)(Cl)Cl (stereo not given)   > 10 µM (inactive)
